Let's look at some binders and their measured BMPRII binding (relative to wild type = 1.0).
Molecular target: T1, BMPRII receptor-Fc fusion (UniProt Q13873 27-151, limits assumed)
T1 construct: BMP receptor-Fc fusion used at 5 ug/mL
T1 sequence (looked up): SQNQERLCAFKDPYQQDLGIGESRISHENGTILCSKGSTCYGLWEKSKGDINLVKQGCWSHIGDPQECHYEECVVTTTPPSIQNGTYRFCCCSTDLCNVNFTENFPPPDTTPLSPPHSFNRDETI
Assay: ELISA-like plate assay, captured BMP-7 from conditioned media, receptor-Fc detection

Examples with answers:
- BMP-7 variant R134K (ligand, In conditioned media; numbering on mature BMP-7) STGGKQRSQNRSKTPKNQEALRMASVAENSSSDQRQACKKHELYVSFRDLGWQDWIIAPEGYAAYYCEGECAFPLNSYMNATNHAIVQTLVHFINPETVPKPCCAPTQLNAISVLYFDDSSNVILKKYRNMVVKACGCH: 0.91 relative to wild type
- BMP-7 variant Y44N (ligand, In conditioned media; numbering on mature BMP-7) STGGKQRSQNRSKTPKNQEALRMASVAENSSSDQRQACKKHELNVSFRDLGWQDWIIAPEGYAAYYCEGECAFPLNSYMNATNHAIVQTLVHFINPETVPKPCCAPTQLNAISVLYFDDSSNVILKKYRNMVVRACGCH: 1.46 relative to wild type

## Task Which BMPRII binding (relative to wild type = 1.0) value is on record for BMP-7 variant K126E (ligand, In conditioned media; numbering on mature BMP-7) STGGKQRSQNRSKTPKNQEALRMASVAENSSSDQRQACKKHELYVSFRDLGWQDWIIAPEGYAAYYCEGECAFPLNSYMNATNHAIVQTLVHFINPETVPKPCCAPTQLNAISVLYFDDSSNVILEKYRNMVVRACGCH ?
## Result 0 relative to wild type

## Task Which BMPRII binding (relative to wild type = 1.0) value is on record for BMP-7 variant Y78P (ligand, In conditioned media; numbering on mature BMP-7) STGGKQRSQNRSKTPKNQEALRMASVAENSSSDQRQACKKHELYVSFRDLGWQDWIIAPEGYAAYYCEGECAFPLNSPMNATNHAIVQTLVHFINPETVPKPCCAPTQLNAISVLYFDDSSNVILKKYRNMVVRACGCH ?
## Result 0.85 relative to wild type

## Task Which BMPRII binding (relative to wild type = 1.0) value is on record for BMP-7 variant R48Q (ligand, In conditioned media; numbering on mature BMP-7) STGGKQRSQNRSKTPKNQEALRMASVAENSSSDQRQACKKHELYVSFQDLGWQDWIIAPEGYAAYYCEGECAFPLNSYMNATNHAIVQTLVHFINPETVPKPCCAPTQLNAISVLYFDDSSNVILKKYRNMVVRACGCH ?
## Result 0.15 relative to wild type

## Task Which BMPRII binding (relative to wild type = 1.0) value is on record for BMP-7 variant F73D (ligand, In conditioned media; numbering on mature BMP-7) STGGKQRSQNRSKTPKNQEALRMASVAENSSSDQRQACKKHELYVSFRDLGWQDWIIAPEGYAAYYCEGECADPLNSYMNATNHAIVQTLVHFINPETVPKPCCAPTQLNAISVLYFDDSSNVILKKYRNMVVRACGCH ?
## Result 3.05 relative to wild type

## Task Which BMPRII binding (relative to wild type = 1.0) value is on record for BMP-7 variant S77P (ligand, In conditioned media; numbering on mature BMP-7) STGGKQRSQNRSKTPKNQEALRMASVAENSSSDQRQACKKHELYVSFRDLGWQDWIIAPEGYAAYYCEGECAFPLNPYMNATNHAIVQTLVHFINPETVPKPCCAPTQLNAISVLYFDDSSNVILKKYRNMVVRACGCH ?
## Result 0.91 relative to wild type
